Property: SR Ca^2+-ATPase Activity; scope: individual compounds
# TARGET: SR Ca^2+-ATPase (Canis lupus familiaris)
# Construct: Effect of gingerols and their derivatives on the Ca^2+-ATPase activity of dog cardiac SR; from tissue; host or cells: dog heart (cardiac sarcoplasmic reticulum)
# METHOD_DESCRIPTION: Sarcoplasmic reticulum Ca^2+-ATPase assay
# Format: biochemical, dog
# CONDITION_DETAILS: 10 µM; 0 µM = 100; dog cardiac SR

COMPOUND | SR Ca^2+-ATPase Activity
CCCCCCCCCC(O)CCc1ccc(O)c(OC)c1 (stereo not shown) | 108
CCCCCCCCCC(O)CC(=O)c1ccc(O)c(OC)c1 (stereo not shown) | 133
CCCCCC(O)CC(=O)CCc1ccc(O)c(OC)c1 (stereo not shown) [[6]-gingerol, reference compound] | 117
CCCCCCCC(O)CC(=O)c1ccc(O)c(OC)c1 (stereo not shown) | 174
CCCCCCCC(O)CCCCc1ccc(O)c(OC)c1 (stereo not shown) | 136
CCCCCCCC(O)CC(=O)CCc1ccc(O)c(OC)c1 (stereo not shown) [[8]-gingerol, reference compound] | 165
CCCCCCCC(O)CC(=O)C=Cc1ccc(O)c(OC)c1 (stereo not shown) [[8]-dehydrogingerol, reference compound] | 92

* * *

# System: DRG neuronal cells
# METHOD_DESCRIPTION: Peak [Ca^2+]i transients in cultured dorsal root ganglion neurons (Fura-2)
# Assay type: cell-based, rat
# CONDITION_DETAILS: 10 µM applied for 1 min, 2 mM Ca^2+
# Protocol: DRG from neonatal (3-5 days old) rat or adult Sprague-Dawley rats were incubated in Hanks CMF saline with 0.05% collagenase and 0.25% trypsin for 25 min at 37° C. Individual cells were obtained by trituration with fire polished Pasteur pipettes of diminishing diameters. […] [Ca^2+]i was calculated from dual excitation wavelength (340/380 nm) fluorescence measurements following an intracellular calibration procedure by the Grynkiewicz equation, using MCID M2/M4 v.3.0 (Imaging Res. Inc.) software. […]
ENDPOINT_LABEL: Peak [Ca^2+]i (Average ±SD) (nM)

MOLECULE | ENDPOINT_LABEL | OUTPUT_UNIT | RECORDED_MEASUREMENT
CCCCCCCC(O)CC(=O)CCc1ccc(O)c(OC)c1 (stereo not shown) [[8]-gingerol, reference compound] | Peak [Ca^2+]i (Average ±SD) | nM | 279
CCCCCCCC(O)CC(=O)CCc1ccc2c(c1)OCO2 (stereo not shown) | Peak [Ca^2+]i (Average ±SD) | nM | 225
CCCCCCCC(O)CC(=O)c1ccc(O)c(OC)c1 (stereo not shown) | Peak [Ca^2+]i (Average ±SD) | nM | 0
CCCCCCCC(O)CCCCc1ccc(O)c(OC)c1 (stereo not shown) | Peak [Ca^2+]i (Average ±SD) | nM | 0

* * *

# System: DRG neuronal cells
# METHOD_DESCRIPTION: Peak [Ca^2+]i transients in cultured dorsal root ganglion neurons (Fura-2)
# Format: cell-based, rat
# CONDITION_DETAILS: 10 µM applied for 1 min, 2 mM Ca^2+
# Protocol: DRG from neonatal (3-5 days old) rat or adult Sprague-Dawley rats were incubated in Hanks CMF saline with 0.05% collagenase and 0.25% trypsin for 25 min at 37° C. Individual cells were obtained by trituration with fire polished Pasteur pipettes of diminishing diameters. […] [Ca^2+]i was calculated from dual excitation wavelength (340/380 nm) fluorescence measurements following an intracellular calibration procedure by the Grynkiewicz equation, using MCID M2/M4 v.3.0 (Imaging Res. Inc.) software. […]
ENDPOINT_LABEL: Peak [Ca^2+]i (Average ±SD) (nM)

MOLECULE | ENDPOINT_LABEL | RECORDED_MEASUREMENT
CCCCCCCC(O)CC(=O)CCc1ccc(O)cc1 (stereo not drawn) [[8]-demethoxygingerol] | Peak [Ca^2+]i (Average ±SD) | 243
CCCCCCCC(=O)CC(O)CCc1ccc(O)c(OC)c1 (stereo not drawn) | Peak [Ca^2+]i (Average ±SD) | 167
CCCCCCCC(O)CC(O)CCc1ccc(O)c(OC)c1 (stereo not drawn) [[8]-gingerdiol, reference compound] | Peak [Ca^2+]i (Average ±SD) | 246
CCCCCCCC=CC(=O)CCc1ccc(O)c(OC)c1 [[8]-shogaol, reference compound] | Peak [Ca^2+]i (Average ±SD) | 110
CCCCCCCCC(C)(O)CCc1ccc(O)c(OC)c1 (stereo not drawn) | Peak [Ca^2+]i (Average ±SD) | 0
CCCCCCCCCC(=O)CCc1ccc(O)c(OC)c1 [[8]-paradol, reference compound] | Peak [Ca^2+]i (Average ±SD) | 200
CCCCCCCC(O)CC(=O)CCc1ccc(OC)c(O)c1 (stereo not drawn) [[8]-isogingerol, reference compound] | Peak [Ca^2+]i (Average ±SD) | 281
CCCCCCCCCC(O)C(=O)c1ccc(O)c(OC)c1 (stereo not drawn) | Peak [Ca^2+]i (Average ±SD) | 215
CCCCCCCC(O)CC(=O)CCc1cccc(OC)c1O (stereo not drawn) [[8]-orthogingerol] | Peak [Ca^2+]i (Average ±SD) | 245

* * *

Reported SR Ca^2+-ATPase Activity values for a set of compounds
# TARGET: SR Ca^2+-ATPase (Canis lupus familiaris, UniProt O46674)
# Construct: Effect of gingerols and their derivatives on the Ca^2+-ATPase activity of dog cardiac SR; from tissue; host or cells: dog heart (cardiac sarcoplasmic reticulum)
# Sequence (O46674 whole entry): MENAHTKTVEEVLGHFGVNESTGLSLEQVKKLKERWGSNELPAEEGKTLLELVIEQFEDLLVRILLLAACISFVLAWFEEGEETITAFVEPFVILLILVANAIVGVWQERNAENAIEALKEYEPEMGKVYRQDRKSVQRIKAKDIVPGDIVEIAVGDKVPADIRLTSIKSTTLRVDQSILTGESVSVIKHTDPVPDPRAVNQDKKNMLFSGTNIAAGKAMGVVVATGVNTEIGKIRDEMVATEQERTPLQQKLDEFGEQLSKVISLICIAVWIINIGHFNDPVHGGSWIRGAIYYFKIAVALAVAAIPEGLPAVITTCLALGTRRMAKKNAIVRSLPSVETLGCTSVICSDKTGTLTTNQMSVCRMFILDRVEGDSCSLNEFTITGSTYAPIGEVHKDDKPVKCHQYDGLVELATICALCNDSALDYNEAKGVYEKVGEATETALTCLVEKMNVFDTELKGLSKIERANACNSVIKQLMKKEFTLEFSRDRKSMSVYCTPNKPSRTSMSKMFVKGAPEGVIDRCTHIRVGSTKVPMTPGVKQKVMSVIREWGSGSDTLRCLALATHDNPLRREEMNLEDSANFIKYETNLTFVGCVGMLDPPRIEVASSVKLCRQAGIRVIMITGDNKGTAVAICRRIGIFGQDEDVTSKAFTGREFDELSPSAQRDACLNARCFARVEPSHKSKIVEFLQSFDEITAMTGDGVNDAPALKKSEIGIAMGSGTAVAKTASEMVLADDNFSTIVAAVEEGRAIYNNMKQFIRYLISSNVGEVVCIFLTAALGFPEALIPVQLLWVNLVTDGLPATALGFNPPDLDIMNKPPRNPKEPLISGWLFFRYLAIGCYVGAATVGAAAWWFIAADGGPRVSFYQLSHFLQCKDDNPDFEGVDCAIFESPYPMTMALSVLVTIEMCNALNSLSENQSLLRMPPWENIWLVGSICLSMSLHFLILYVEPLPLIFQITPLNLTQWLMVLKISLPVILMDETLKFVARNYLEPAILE
# METHOD_DESCRIPTION: Sarcoplasmic reticulum Ca^2+-ATPase assay
# Format: biochemical, dog
# CONDITION_DETAILS: 100 µM; 0 µM = 100; dog cardiac SR

COMPOUND | SR Ca^2+-ATPase Activity
CCCCCCCCCC(O)CCc1ccc(O)c(OC)c1 (stereo not shown) | 98
CCCCCCCCCC(O)CC(=O)c1ccc(O)c(OC)c1 (stereo not shown) | 149
CCCCCCCC(O)CC(=O)c1ccc(O)c(OC)c1 (stereo not shown) | 222
CCCCCCCC(O)CCCCc1ccc(O)c(OC)c1 (stereo not shown) | 87

* * *

# TARGET: SR Ca^2+-ATPase (Canis lupus familiaris, UniProt O46674)
# Construct: Effect of gingerols and their derivatives on the Ca^2+-ATPase activity of dog cardiac SR
# METHOD_DESCRIPTION: Sarcoplasmic reticulum Ca^2+-ATPase assay
# CONDITION_DETAILS: read-out: SR Ca^2+-ATPase IC50 = conc. for 50% inhibition
pIC50: −log10 of the molar value.
# maps each entry to its pIC50
ENDPOINT_LABEL: pIC50

MOLECULE | TARGET | RECORDED_MEASUREMENT
CCCCCCCC(=O)CC(O)CCc1ccc(O)c(OC)c1 (stereo not shown) | SR Ca^2+-ATPase (Canis lupus familiaris, UniProt O46674) | < 4.00
CCCCCCCCCC(O)CCc1ccc(O)c(OC)c1 (stereo not shown) | SR Ca^2+-ATPase (Canis lupus familiaris, UniProt O46674) | 4.00 to 4.30
CCCCCCCCCC(O)CC(=O)c1ccc(O)c(OC)c1 (stereo not shown) | SR Ca^2+-ATPase (Canis lupus familiaris, UniProt O46674) | 4.30
CCCCCCCC(O)CC(O)CCc1ccc(O)c(OC)c1 (stereo not shown) [[8]-gingerdiol, reference compound] | SR Ca^2+-ATPase (Canis lupus familiaris, UniProt O46674) | < 4.00

* * *

# TARGET: SR Ca^2+-ATPase (Canis lupus familiaris)
# Construct: Effect of gingerols and their derivatives on the Ca^2+-ATPase activity of dog cardiac SR; from tissue; host or cells: dog heart (cardiac sarcoplasmic reticulum)
# METHOD_DESCRIPTION: Sarcoplasmic reticulum Ca^2+-ATPase assay
# Type: biochemical, dog
# CONDITION_DETAILS: 5 µM; 0 µM = 100; dog cardiac SR

COMPOUND | SR Ca^2+-ATPase Activity
CCCCCCCCCC(O)CC(=O)c1ccc(O)c(OC)c1 (stereo not shown) | 111
CCCCCCCCCC(O)CCc1ccc(O)c(OC)c1 (stereo not shown) | 102
CCCCCCCC(O)CC(=O)C=Cc1ccc(O)c(OC)c1 (stereo not shown) [[8]-dehydrogingerol, reference compound] | 88
CCCCCC(O)CC(=O)CCc1ccc(O)c(OC)c1 (stereo not shown) [[6]-gingerol, reference compound] | 120
CCCCCCCC(O)CC(=O)CCc1ccc(O)c(OC)c1 (stereo not shown) [[8]-gingerol, reference compound] | 158
CCCCCCCC(O)CCCCc1ccc(O)c(OC)c1 (stereo not shown) | 113
CCCCCCCC(O)CC(=O)c1ccc(O)c(OC)c1 (stereo not shown) | 152

* * *

# TARGET: Lipoxygenase (LP) (Rattus norvegicus)
# Construct: cell-free enzyme (Wong et al, 1991) prepared from rat basophilic leukemia (RBL) 2H3 cell lines; endogenous in cells; host or cells: RBL 2H3 (rat basophilic leukemia), 15,000 g supernatant of cells disrupted by nitrogen cavitation
# Sequence (P12527 whole entry): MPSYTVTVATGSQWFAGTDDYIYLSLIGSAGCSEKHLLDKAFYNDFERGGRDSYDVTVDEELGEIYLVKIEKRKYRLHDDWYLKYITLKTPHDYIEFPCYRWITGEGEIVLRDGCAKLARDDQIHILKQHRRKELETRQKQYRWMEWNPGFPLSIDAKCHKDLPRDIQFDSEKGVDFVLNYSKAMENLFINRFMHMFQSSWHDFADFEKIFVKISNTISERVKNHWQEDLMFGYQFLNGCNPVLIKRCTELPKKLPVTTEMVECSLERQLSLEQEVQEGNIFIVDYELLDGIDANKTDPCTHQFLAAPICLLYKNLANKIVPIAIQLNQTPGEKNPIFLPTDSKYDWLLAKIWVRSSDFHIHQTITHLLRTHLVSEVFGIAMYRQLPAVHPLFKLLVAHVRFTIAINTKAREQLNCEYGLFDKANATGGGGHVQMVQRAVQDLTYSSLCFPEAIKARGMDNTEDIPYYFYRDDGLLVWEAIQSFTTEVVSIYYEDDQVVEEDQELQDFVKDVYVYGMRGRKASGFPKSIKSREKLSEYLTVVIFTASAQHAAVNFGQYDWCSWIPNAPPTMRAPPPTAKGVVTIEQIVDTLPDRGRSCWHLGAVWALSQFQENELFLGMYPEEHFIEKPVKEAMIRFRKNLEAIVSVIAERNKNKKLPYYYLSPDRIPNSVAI
# METHOD_DESCRIPTION: Lipoxygenase assay with cell-free enzyme from RBL 2H3 cells (EIA)
# Assay type: biochemical
# CONDITION_DETAILS: final concentration of 10 µM
ENDPOINT_LABEL: activity at 10 µM (%)

COMPOUND | ENDPOINT_LABEL | OUTPUT_UNIT | RECORDED_MEASUREMENT
CCCCCCCC(O)CC(=O)CCc1cccc(OC)c1O (stereo not shown) [[8]-orthogingerol] | activity at 10 µM | % | 118
CCCCCCCC(O)CC(=O)C=Cc1ccc(O)c(OC)c1 (stereo not shown) [[8]-dehydrogingerol, reference compound] | activity at 10 µM | % | 37
CCCCCCCC(O)CC(=O)CCc1ccc(O)cc1 (stereo not shown) [[8]-demethoxygingerol] | activity at 10 µM | % | 450
CCCCCCCC(O)CC(O)CCc1ccc(O)c(OC)c1 (stereo not shown) [[8]-gingerdiol, reference compound] | activity at 10 µM | % | 26
CCCCCCCC=CC(=O)C=Cc1ccc(O)c(OC)c1 | activity at 10 µM | % | 2
CCCCCCCC(O)CC(=O)CCc1ccc(O)c(OC)c1 (stereo not shown) [[8]-gingerol, reference compound] | activity at 10 µM | % | 65.5
CCCCCCCCCC(=O)C(O)c1ccc(O)c(OC)c1 (stereo not shown) | activity at 10 µM | % | 83
CCCCCCCC(=O)CC(O)CCc1ccc(O)c(OC)c1 (stereo not shown) | activity at 10 µM | % | 193
CCCCCC(O)CC(=O)CCc1ccc(O)c(OC)c1 (stereo not shown) [[6]-gingerol, reference compound] | activity at 10 µM | % | 202
CCCCCCCCC(C)(O)CCc1ccc(O)c(OC)c1 (stereo not shown) | activity at 10 µM | % | 3
CCCCCCCCCC(=O)CCc1ccc(O)c(OC)c1 [[8]-paradol, reference compound] | activity at 10 µM | % | 81
CCCCCCCCCCC(C)(O)CCc1ccc(O)c(OC)c1 (stereo not shown) | activity at 10 µM | % | 5
CCCCCCCC(O)CC(=O)c1ccc(O)c(OC)c1 (stereo not shown) | activity at 10 µM | % | 175
CCCCCCCC(O)CCCCc1ccc(O)c(OC)c1 (stereo not shown) | activity at 10 µM | % | 35
CCCCCCCCCC(O)C(=O)c1ccc(O)c(OC)c1 (stereo not shown) | activity at 10 µM | % | 61
CCCCCCCC(O)CC(=O)CCc1ccc2c(c1)OCO2 (stereo not shown) | activity at 10 µM | % | 107
CCCCCCCCCC(O)CCc1ccc(O)c(OC)c1 (stereo not shown) | activity at 10 µM | % | 31
CCCCCCCC(O)CC(=O)CCc1ccc(OC)c(O)c1 (stereo not shown) [[8]-isogingerol, reference compound] | activity at 10 µM | % | 8
CCCCCCCC=CC(=O)CCc1ccc(O)c(OC)c1 [[8]-shogaol, reference compound] | activity at 10 µM | % | 0
